Molecular target: cGMP-dependent protein kinase (Bos taurus, UniProt P00516)
Sequence (P00516 1-671): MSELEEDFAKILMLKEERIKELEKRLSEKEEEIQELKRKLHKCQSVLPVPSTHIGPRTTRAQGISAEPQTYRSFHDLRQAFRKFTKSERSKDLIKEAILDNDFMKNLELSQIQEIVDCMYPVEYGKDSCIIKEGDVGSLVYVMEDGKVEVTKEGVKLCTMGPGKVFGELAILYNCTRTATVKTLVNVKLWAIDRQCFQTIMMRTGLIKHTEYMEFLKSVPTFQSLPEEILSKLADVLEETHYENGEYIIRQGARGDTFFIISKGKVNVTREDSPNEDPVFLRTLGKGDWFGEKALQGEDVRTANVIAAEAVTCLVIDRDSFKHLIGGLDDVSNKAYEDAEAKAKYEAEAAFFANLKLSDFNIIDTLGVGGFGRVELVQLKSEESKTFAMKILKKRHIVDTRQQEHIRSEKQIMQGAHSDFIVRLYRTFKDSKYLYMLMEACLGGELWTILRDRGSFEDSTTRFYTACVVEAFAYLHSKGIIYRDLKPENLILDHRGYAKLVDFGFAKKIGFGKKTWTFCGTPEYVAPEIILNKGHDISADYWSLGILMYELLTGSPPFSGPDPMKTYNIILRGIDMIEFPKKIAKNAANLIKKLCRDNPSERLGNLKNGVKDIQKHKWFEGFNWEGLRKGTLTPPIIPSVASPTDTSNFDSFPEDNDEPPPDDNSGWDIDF
reported.endpoint: pIC50
Conceptually, pIC50 converts a concentration in mol/L into minus its log10.

(Q) I have this compound here, O=C1NC(=O)c2c1c1c3ccccc3n3c1c1c2c2ccccc2n1C1CCC3O1 , and I need its recorded pIC50.
(A) 6.28
